Reported TGI is given for each of the following compounds.
System: HCT-116 colon
protocol_details: NCI tumour cell line growth inhibition, 48 h
Lab book: enter the figure in µM, no units written.

CCC12C[N+]3([O-])CCc4c([nH]c5ccccc45)C(C(=O)OC)(c4cc5c(cc4OC)N(C)C4C(O)(C(=O)OC)C(OC(C)=O)C6(CC)C=CCN7CCC54C76)CC(C3)C1O2 (centres undefined)
11.6

Value lookup for TGI; key = CC(=O)OC(C)c1cc2c(s1)C(=O)c1sccc1C2=O (centres undefined)
2.48

Likewise for "O=C(O)c1ccc([Se][Se]c2ccc(C(=O)O)cc2)cc1" ?
34.5

Lookup "CC(C)(C)C1=Cc2cc3cc(C(C)(C)C)[nH]c(=O)c3cc2S(=O)(=O)N1"
42.8
